Outcome Measure: melting point

Worked cases, answers included:
> print(dat)
                            molecule.smiles  endpoint.value
1  COCCOc1cc2nccc(Nc3cc(O)c(C)cc3F)c2cc1C#N.Cl   300 to 302 °C
2  COc1cc2nccc(Nc3cc(O)c(C)cc3F)c2cc1C#N.Cl   278 to 281 °C
3  COc1cc2nccc(Nc3cc(O)c(Cl)cc3F)c2cc1OC.Cl   312 to 318 °C
4  COc1cc2c(Nc3ccc(Cl)cc3F)ccnc2cc1OCCN(C)C.Cl        > 250 °C
5  COc1cc2c(Nc3ccc(Cl)cc3F)ccnc2cc1OCc1ccccc1.Cl   222 to 225 °C

Please turn your attention to the following entry.
Give me measured melting point, please, for this compound: COc1cc2c(Oc3cc(O)c(C)cc3F)ccnc2cc1OCCCN1CCOCC1
210 to 217 °C

Provenance of the data: patent US6809097B1
